target: Wee1 (Homo sapiens (Human), UniProt P30291); experiment: In vitro enzymatic inhibitory activity (33P-ATP filter-binding kinase assay, MBP substrate); type: biochemical; conditions: Wee-1 150 nM, MBP 20 μM
Sequence (P30291 whole entry): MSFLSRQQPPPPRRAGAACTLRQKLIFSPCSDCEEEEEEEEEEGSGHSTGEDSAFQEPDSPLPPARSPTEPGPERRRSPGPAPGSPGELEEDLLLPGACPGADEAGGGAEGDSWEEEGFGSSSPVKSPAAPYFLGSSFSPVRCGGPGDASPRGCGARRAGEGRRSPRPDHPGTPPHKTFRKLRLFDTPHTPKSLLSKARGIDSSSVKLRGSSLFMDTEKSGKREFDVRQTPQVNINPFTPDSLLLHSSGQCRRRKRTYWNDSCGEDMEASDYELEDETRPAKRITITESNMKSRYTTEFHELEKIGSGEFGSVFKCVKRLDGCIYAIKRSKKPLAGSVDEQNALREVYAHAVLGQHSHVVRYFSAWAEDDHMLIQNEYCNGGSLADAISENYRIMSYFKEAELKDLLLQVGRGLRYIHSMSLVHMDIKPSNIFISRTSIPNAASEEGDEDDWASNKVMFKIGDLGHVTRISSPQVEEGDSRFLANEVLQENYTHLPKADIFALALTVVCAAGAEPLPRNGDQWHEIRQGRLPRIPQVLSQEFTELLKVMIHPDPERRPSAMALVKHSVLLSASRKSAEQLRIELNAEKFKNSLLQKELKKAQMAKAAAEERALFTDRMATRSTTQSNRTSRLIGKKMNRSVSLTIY
measurement_type: IC50 (nM)
I only need the number, in nM, no unit after it.

| item_smiles | study_system | IC50 [nM] |
| --- | --- | --- |
| CCCn1c(=O)c2cnc(Nc3ccc(N4CCC5(CCN(C)CC5)CC4)cc3)nc2n1-c1cccc(C(C)(C)O)n1 | Wee1 (Homo sapiens (Human), UniProt P30291) | 48.8 |

Measured IC50 of `C=CCn1c(=O)c2cnc(Nc3ccc(N4CCC5(CCN(C)CC5)CC4)cc3)nc2n1-c1cccc(Cl)n1` : 20.4

Measured IC50 of `C=CCn1c(=O)c2cnc(Nc3ccc(N4CCC5(CCN(C)CC5)CC4)cc3)nc2n1-c1cccc(OC(C)C)n1` : 6.3
